Biological target: IKZF1 (Homo sapiens (Human), UniProt Q13422+Q96SW2)
Sequence (Q13422 whole entry): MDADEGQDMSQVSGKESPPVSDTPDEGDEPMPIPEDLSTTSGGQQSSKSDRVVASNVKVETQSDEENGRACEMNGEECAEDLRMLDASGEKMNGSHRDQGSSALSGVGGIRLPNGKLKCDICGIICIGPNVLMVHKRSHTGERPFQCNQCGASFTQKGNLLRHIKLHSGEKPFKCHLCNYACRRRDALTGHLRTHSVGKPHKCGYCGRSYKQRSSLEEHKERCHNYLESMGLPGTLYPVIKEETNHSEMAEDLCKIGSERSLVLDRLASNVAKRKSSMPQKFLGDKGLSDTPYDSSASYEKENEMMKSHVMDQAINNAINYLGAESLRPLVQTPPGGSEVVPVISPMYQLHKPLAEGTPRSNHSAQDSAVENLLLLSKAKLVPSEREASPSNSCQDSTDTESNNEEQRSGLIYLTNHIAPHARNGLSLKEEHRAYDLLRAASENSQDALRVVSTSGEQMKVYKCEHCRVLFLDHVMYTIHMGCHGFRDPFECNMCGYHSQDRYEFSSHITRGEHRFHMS
Sequence (Q96SW2 whole entry): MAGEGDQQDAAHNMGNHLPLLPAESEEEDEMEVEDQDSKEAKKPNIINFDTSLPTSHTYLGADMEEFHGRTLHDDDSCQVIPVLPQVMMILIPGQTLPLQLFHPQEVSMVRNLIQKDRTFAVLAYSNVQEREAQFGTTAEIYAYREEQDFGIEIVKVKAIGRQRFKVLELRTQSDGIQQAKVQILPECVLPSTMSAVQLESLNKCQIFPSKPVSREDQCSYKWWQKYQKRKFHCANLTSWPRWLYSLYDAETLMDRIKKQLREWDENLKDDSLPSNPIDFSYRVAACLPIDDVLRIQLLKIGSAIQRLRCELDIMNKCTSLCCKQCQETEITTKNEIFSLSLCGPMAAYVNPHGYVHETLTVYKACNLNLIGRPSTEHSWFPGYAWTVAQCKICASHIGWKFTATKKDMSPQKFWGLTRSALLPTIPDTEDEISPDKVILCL
Sequence (Q16531 2-1140 partner): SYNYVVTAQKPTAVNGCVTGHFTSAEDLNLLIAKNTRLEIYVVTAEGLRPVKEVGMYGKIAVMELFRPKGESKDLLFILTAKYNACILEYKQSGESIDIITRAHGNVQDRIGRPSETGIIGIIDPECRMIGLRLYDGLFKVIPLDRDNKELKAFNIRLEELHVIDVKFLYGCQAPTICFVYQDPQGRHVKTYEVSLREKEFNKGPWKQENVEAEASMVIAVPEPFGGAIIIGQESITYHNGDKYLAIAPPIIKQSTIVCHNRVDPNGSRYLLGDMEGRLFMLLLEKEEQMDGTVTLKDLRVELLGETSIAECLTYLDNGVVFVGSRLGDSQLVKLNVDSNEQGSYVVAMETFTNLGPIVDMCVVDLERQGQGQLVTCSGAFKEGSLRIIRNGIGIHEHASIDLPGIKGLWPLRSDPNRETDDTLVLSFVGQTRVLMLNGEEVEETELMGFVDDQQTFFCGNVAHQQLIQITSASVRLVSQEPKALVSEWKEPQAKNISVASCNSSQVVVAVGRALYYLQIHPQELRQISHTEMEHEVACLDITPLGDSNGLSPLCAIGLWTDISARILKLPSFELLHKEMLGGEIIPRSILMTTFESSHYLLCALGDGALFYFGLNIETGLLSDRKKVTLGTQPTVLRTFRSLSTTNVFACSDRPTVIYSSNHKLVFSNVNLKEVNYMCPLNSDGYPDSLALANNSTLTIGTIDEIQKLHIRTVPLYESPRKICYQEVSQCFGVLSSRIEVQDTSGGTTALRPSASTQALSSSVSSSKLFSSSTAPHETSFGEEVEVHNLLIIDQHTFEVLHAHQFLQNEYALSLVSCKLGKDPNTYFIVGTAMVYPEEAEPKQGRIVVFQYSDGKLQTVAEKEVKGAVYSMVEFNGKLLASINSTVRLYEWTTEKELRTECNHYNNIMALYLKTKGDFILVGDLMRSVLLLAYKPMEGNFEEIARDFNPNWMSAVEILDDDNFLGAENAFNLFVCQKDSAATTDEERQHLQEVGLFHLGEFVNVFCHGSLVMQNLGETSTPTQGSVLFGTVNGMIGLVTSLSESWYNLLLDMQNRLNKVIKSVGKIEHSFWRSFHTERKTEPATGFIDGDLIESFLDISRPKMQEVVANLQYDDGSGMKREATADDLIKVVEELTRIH
Test: In vitro IKZF1 HiBit Assay (HEK293T Flp-in-HiBiT-IKZF1 stable cell line)
Type: cell-based
Conditions: HEK-293T; HEK293T Flp-in-HiBiT-IKZF1 stable cell line, 6 hrs incubation; read-out: IKZF1 HiBit Dmax (%)
Protocol: In Vitro IKZF1 HiBit Assay […] 25 nL of diluted compound is transferred to assay plates (Corning3571) using ECHO550, the final DMSO concentration @ 0.1%. […] The amount of Nano-Glo® HiBiT lytic reagent needed to perform the desired experiments is calculated. […] After briefly centrifuge, the plateis read on Envision. […] The extent of degradation (range of luminescence) from the highest to lowest concentration points was calculated to determine the Dmax. […]
So I've got a bunch of compounds here, and I need their Dmax values.

| compound | system.tested | Dmax |
| --- | --- | --- |
| Cn1ccc2c(CN3CCSCC3)cc(-c3ccc4c(c3)CN(C3CCC(=O)NC3=O)C4=O)nc21 (centres unmarked) | IKZF1 (Homo sapiens (Human), UniProt Q13422+Q96SW2) | < 20% |
| CN(C)C1CCN(Cc2cc(-c3ccc4c(c3)CN(C3CCC(=O)NC3=O)C4=O)nc3c2ccn3C2COC2)CC1 (centres unmarked) | IKZF1 (Homo sapiens (Human), UniProt Q13422+Q96SW2) | < 20% |
| Cn1ccc2c(CN3CCCC3CO)cc(-c3ccc4c(c3)CN(C3CCC(=O)NC3=O)C4=O)nc21 (centres unmarked) | IKZF1 (Homo sapiens (Human), UniProt Q13422+Q96SW2) | < 20% |
| O=C1CCC(N2Cc3cc(-c4cc(CN5CCCC5)c5ncn(C6CCC6)c5n4)ccc3C2=O)C(=O)N1 (centres unmarked) | IKZF1 (Homo sapiens (Human), UniProt Q13422+Q96SW2) | < 20% |
| CN(C)C(=O)C1CCN(Cc2cc(-c3ccc4c(c3)CN(C3CCC(=O)NC3=O)C4=O)nc3c2ccn3C)CC1 (centres unmarked) | IKZF1 (Homo sapiens (Human), UniProt Q13422+Q96SW2) | < 20% |
| O=C1CCC(N2Cc3cc(-c4cc(CN5CCCC5)c5ccn(C6COC6)c5n4)ccc3C2=O)C(=O)N1 (centres unmarked) | IKZF1 (Homo sapiens (Human), UniProt Q13422+Q96SW2) | 20 to 40% |
| COC1CCN(Cc2cc(-c3ccc4c(c3)CN(C3CCC(=O)NC3=O)C4=O)nc3c2ccn3C2COC2)CC1 (centres unmarked) | IKZF1 (Homo sapiens (Human), UniProt Q13422+Q96SW2) | 20 to 40% |
| CC(C)C1CCN(Cc2cc(-c3ccc4c(c3)CN(C3CCC(=O)NC3=O)C4=O)nc3[nH]ccc23)C1 (centres unmarked) | IKZF1 (Homo sapiens (Human), UniProt Q13422+Q96SW2) | 40 to 60% |
| O=C1CCC(N2Cc3cc(-c4cc(CN5CCCC5)c5cc[nH]c5n4)c(F)cc3C2=O)C(=O)N1 (centres unmarked) | IKZF1 (Homo sapiens (Human), UniProt Q13422+Q96SW2) | 20 to 40% |
| Cn1ccc2c(CN3CCOCC3)cc(-c3ccc4c(c3)CN(C3CCC(=O)NC3=O)C4=O)nc21 (centres unmarked) | IKZF1 (Homo sapiens (Human), UniProt Q13422+Q96SW2) | < 20% |

Batch lookup, Dmax per entry.
1. O=C1CCC(N2Cc3cc(-c4cc(CN5CCCC5)c5ccn(C6CCOC6)c5n4)ccc3C2=O)C(=O)N1 (centres unmarked)
2. O=C1CCC(N2Cc3cc(-c4cc(CN5CCCC5)c5nccc(OC6COC6)c5n4)ccc3C2=O)C(=O)N1 (centres unmarked)

Reply:
< 20%
< 20%
